biological target: α-synuclein fibrils (Homo sapiens); assay: ThT competitive binding assay with α-synuclein fibrils
Would you kindly list pIC50 for each of these molecules?
In plain terms, pIC50 is the concentration in mol/L turned into minus its base-10 logarithm.

Measured pIC50 of COc1cccc2c1Nc1ccc([N+](=O)[O-])cc1S2 [TZ10-27-1, 1-methoxy-7-nitro-10H-phenothiazine] : 5.85

Measured pIC50 of COc1ccc2c(c1)Nc1ccc([N+](=O)[O-])cc1S2 [TZ10-1-2-1, 2-methoxy-7-nitro-10H-phenothiazine] : 6.82

Measured pIC50 of `COc1ccc2c(c1)Nc1ccc(C(F)(F)F)cc1S2` : 5.97

Measured pIC50 of COc1ccc2c(c1)Nc1ccc([N+](=O)[O-])cc1O2 [TZ-2-39, 2-methoxy-7-nitro-10H-phenoxazine] : 7.40

Measured pIC50 of `COc1ccc2c(c1)Sc1cnccc1N2` : 5.65

Measured pIC50 of COc1ccc2c(c1)Nc1c(cccc1[N+](=O)[O-])O2 [TZ-2-52, 8-methoxy-1-nitro-10H-phenoxazine] : 6.30

Measured pIC50 of `COc1ccc2c(c1)Sc1cccnc1N2` : 5.18

Measured pIC50 of `COc1cccc2c1N(C(C)=O)c1ccc(C(F)(F)F)cc1S2` : 5.98

Measured pIC50 of COc1ccc2c(c1)Oc1cc([N+](=O)[O-])ccc1N2 [TZ-2-33, 3-methoxy-7-nitro-10H-phenoxazine] : 6.97

Measured pIC50 of `COc1ccc2c(c1)Sc1cc(C(F)(F)F)ccc1N2` : 6.13

Measured pIC50 of `COc1ccc2c(c1)Oc1cc([N+](=O)[O-])cnc1N2` : 6.95

Measured pIC50 of COc1ccc2c(c1)Oc1cccc([N+](=O)[O-])c1N2 [TZ-2-54, 7-methoxy-1-nitro-10H-phenoxazine] : 6.16
